test_protocol: AUC (0 to infinity) in CD-1 male mouse at 5 mg/kg, iv by LC-MS/MS analysis
Assay type: ADME, organism-based
measurement_parameters: CD-1, mouse, in vivo
measured_parameter: AUC(0-inf) (ng·h/mL)
Kindly answer with a numeric value in ng·h/mL, unit omitted.

Given the compound `CCCNNC(=O)c1ccc(CNC(=O)c2cc3cnccc3[nH]2)cc1` , what is its reported AUC(0-inf)?
3360

* * *

IC50 tested on UniProtKB P56524: recorded values

{"columns": ["compound_string", "assayed_system", "IC50"],
 "data": [
  ["CCCNNC(=O)c1ccc(CNC(=O)c2cc3cnccc3[nH]2)cc1", "UniProtKB P56524", "> 10 µM"]
]}

In the following, a different compound is considered.
I am curious: what IC50 value has been reported for `CCCNNC(=O)c1ccc(CNC(=O)/C=C/c2cccnc2)cc1` ?
> 10 µM

* * *

assayed_system: Histone deacetylase 2 (Homo sapiens, UniProt Q92769)
test_protocol: biochemical
IC50 for assorted compounds

{"columns": ["compound", "assayed_system", "IC50"],
 "data": [
  ["COC(=O)c1ccc(CNC(=O)c2cc3cnccc3[nH]2)cc1", "Histone deacetylase 2 (Homo sapiens, UniProt Q92769)", "> 20 µM"]
]}

Query IC50 on Histone deacetylase 2 (Homo sapiens, UniProt Q92769) for `CCCNNC(=O)CCNC(=O)/C=C/c1cccnc1`
> 10 µM

Item: `CCCNNC(=O)c1ccc(CNC(=O)c2cc3cnccc3o2)cc1` Test system: Histone deacetylase 2 (Homo sapiens, UniProt Q92769) Read-out: IC50 Value: ?
0.0194 µM

Record O=C(/C=C/c1cccnc1)NCCCCC1CCN(C(=O)c2ccccc2)CC1 [DAPORINAD] : what is its IC50 with Histone deacetylase 2 (Homo sapiens, UniProt Q92769)?
> 10 µM

* * *

System: MV4-11
test_protocol: cells
Assay type: functional, cell-based
measurement_parameters: Homo sapiens, MV4-11; time 48 hrs
measured_parameter: GI50 (nM)
Write the answer as a number in nM, unit excluded.

{"columns": ["compound_string", "GI50, nM"],
 "data": [
  ["CCCNNC(=O)c1ccc(CNC(=O)/C=C/c2ccccc2)cc1", 16],
  ["CCCNNC(=O)c1ccc(CNC(=O)/C=C/c2cccnc2)cc1", 38.3],
  ["CCCNNC(=O)c1ccc(CNC(=O)c2cc3cnccc3[nH]2)cc1", 23.6]
]}

Attention now shifts to the item below.
# get_value(readout= GI50, system= MV4-11) for `CCCNNC(=O)c1ccc(CNC(=O)c2cc3ccccc3[nH]2)cc1`
37.3

* * *

test_protocol: Half life in CD-1 male mouse at 5 mg/kg, iv measured for 24 hrs by LC-MS/MS analysis
Assay type: ADME, organism-based
measurement_parameters: CD-1, mouse, in vivo
measured_parameter: half-life (h)
Express your answer in h, writing the number without its unit.

Record request: half-life value, item `CCCNNC(=O)c1ccc(CNC(=O)c2cc3cnccc3[nH]2)cc1`
9.19

* * *

assayed_system: Nicotinamide phosphoribosyltransferase (Homo sapiens, UniProt P43490)
test_protocol: Inhibition of NAMPT (unknown origin)
measured_parameter: IC50
Answer format reminder: number followed by unit.

// IC50 lookup, key: `Cc1ncsc1C(=O)N1CCC(CCCCNC(=O)c2cc3cnccc3[nH]2)CC1`
5 nM

* * *

// reported pIC50 per item
assayed_system: Histone deacetylase 3/Nuclear receptor corepressor 2 (HDAC3/NCoR2) (Homo sapiens, UniProt O15379)
Sequence (O15379 whole entry): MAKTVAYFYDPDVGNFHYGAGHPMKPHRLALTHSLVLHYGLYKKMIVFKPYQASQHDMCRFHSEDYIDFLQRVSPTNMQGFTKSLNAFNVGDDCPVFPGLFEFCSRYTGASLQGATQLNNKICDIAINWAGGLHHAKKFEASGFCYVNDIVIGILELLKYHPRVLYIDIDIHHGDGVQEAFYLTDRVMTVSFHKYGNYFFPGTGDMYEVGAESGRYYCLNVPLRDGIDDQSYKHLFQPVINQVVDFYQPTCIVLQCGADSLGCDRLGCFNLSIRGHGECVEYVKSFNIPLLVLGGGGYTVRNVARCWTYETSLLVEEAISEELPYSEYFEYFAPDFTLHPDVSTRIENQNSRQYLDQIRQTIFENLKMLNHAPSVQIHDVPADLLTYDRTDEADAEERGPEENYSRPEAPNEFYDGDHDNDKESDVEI
Sequence (Q9Y618 whole entry, further chain): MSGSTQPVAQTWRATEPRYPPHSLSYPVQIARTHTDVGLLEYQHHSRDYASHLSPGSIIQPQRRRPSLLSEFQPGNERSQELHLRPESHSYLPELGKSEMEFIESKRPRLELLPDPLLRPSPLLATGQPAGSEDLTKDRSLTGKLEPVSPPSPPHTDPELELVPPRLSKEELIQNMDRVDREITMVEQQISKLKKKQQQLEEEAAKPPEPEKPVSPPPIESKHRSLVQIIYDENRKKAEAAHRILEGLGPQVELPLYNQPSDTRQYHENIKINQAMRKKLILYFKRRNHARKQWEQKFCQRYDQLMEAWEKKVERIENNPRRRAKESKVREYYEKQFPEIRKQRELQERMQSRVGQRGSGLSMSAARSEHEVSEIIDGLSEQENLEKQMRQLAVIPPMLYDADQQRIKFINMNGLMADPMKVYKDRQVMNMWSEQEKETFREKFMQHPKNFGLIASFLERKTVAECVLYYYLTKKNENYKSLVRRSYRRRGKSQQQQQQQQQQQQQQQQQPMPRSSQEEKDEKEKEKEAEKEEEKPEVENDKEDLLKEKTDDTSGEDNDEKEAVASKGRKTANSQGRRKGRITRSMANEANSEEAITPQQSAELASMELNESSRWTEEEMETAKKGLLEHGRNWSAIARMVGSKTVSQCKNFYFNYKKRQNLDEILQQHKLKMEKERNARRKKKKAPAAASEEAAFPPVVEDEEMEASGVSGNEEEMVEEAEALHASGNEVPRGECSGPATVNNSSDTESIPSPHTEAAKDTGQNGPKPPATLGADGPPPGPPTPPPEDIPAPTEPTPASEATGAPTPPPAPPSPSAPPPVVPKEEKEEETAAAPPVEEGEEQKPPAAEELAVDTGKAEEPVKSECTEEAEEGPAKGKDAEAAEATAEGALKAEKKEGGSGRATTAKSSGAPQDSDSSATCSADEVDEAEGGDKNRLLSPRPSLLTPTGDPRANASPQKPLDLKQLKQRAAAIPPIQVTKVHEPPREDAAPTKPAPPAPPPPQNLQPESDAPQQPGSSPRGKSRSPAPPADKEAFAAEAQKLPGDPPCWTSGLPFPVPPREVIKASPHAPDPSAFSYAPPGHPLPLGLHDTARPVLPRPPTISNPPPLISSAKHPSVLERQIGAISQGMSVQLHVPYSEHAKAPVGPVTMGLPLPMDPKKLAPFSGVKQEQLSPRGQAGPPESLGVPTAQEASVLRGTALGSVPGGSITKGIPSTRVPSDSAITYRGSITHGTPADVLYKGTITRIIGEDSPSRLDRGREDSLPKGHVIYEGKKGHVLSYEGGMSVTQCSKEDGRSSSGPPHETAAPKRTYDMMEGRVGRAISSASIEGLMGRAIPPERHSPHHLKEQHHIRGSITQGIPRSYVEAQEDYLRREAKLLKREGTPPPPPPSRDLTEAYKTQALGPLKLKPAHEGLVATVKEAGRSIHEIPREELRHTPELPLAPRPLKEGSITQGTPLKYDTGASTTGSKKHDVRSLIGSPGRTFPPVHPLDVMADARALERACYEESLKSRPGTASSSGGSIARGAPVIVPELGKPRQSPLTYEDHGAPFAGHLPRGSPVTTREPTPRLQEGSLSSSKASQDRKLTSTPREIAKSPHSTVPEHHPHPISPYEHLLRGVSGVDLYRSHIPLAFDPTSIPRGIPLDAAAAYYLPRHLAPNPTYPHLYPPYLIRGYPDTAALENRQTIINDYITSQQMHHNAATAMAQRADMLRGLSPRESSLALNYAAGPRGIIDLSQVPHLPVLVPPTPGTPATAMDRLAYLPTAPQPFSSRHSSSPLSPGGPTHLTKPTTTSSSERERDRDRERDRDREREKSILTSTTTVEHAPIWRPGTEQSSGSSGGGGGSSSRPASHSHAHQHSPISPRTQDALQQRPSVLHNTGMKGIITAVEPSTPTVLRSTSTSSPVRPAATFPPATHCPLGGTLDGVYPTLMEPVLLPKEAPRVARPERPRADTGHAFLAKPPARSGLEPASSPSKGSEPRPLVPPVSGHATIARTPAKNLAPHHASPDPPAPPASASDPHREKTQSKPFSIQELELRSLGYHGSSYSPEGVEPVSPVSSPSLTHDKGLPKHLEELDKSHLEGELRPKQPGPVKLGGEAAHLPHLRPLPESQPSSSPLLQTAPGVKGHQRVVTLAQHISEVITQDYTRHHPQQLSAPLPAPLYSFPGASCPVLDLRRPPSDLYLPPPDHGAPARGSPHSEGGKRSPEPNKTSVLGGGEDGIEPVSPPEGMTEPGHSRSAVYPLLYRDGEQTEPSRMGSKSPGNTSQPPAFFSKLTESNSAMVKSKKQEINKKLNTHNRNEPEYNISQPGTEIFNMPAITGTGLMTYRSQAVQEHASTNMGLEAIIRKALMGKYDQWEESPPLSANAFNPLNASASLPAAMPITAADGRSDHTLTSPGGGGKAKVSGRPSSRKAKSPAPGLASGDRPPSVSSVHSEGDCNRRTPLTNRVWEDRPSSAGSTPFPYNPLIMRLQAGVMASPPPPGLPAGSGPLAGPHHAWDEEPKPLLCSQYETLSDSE
In simple prose, pIC50 is minus the logarithm base ten of a concentration in moles per litre.

{"columns": ["compound_string", "pIC50"],
 "data": [
  ["CCCNNC(=O)c1ccc(CNC(=O)c2cc3cnccc3s2)cc1", 8.70],
  ["CCCNNC(=O)c1ccc(CNC(=O)c2cc3cnccc3o2)cc1", 8.74],
  ["CCCNNC(=O)c1ccc(CNC(=O)c2cc3cnccc3[nH]2)cc1", 9.14]
]}

Looking for the measured pIC50 of `CCCNNC(=O)c1ccc(CNC(=O)c2cc3ccccc3o2)cc1` , can you help?
9.37

* * *

assayed_system: Histone deacetylase 9 (Homo sapiens, UniProt Q9UKV0)
Sequence (Q9UKV0 whole entry, the tested form may be a part): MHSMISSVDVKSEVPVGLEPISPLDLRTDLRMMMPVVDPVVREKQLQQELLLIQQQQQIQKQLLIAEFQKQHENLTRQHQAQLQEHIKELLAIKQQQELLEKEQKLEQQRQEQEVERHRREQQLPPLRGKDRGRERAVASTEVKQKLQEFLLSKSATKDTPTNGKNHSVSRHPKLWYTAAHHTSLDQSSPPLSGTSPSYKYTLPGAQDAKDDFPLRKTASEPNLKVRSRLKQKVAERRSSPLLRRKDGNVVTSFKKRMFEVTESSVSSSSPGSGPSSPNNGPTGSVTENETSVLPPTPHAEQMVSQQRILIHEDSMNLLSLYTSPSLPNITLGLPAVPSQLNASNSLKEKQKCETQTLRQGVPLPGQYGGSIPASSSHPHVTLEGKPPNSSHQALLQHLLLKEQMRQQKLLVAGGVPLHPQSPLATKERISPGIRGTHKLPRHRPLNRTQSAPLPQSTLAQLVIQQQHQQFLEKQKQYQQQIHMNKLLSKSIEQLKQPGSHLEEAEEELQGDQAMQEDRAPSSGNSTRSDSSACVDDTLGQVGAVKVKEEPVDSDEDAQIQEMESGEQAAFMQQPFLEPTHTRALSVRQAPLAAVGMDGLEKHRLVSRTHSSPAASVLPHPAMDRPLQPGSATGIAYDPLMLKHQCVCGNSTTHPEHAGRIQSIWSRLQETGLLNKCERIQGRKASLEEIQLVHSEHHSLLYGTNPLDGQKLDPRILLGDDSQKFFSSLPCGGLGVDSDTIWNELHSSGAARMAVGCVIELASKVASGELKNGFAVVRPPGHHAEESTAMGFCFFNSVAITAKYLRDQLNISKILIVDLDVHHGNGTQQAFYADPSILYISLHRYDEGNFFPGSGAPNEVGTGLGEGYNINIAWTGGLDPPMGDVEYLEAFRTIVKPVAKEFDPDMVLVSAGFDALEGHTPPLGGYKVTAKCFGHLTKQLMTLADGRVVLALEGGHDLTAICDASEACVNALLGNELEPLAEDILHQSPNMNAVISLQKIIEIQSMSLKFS
test_protocol: Inhibition of C-terminal His-tagged human recombinant HDAC9 (604 to 1066 residues) expressed in baculovirus-infected Sf9 cells using Boc-Lys-(trifluoroacetyl)-AMC as substrate preincubated with enzyme for 1 hr followed by substrate addition and measured after 2 hrs by fluorescence analysis
List of IC50 values.

Sample `CCCNNC(=O)c1ccc(CNC(=O)c2cc3cnccc3[nH]2)cc1` — what was its IC50?
> 10 µM

What IC50 value was documented for this compound, `CCCNNC(=O)c1ccc(CNC(=O)/C=C/c2cccnc2)cc1` ?
> 10 µM

* * *

Reported GI50 is given for each of the following compounds.
System: HL-60
test_protocol: Antiproliferative activity against p53-null human HL-60 cells assessed as inhibition of cell growth incubated for 48 hrs by resazurin dye based fluorescence analysis
Type: functional
The reply should contain only the number, in nM.

{"columns": ["compound", "measurement"],
 "data": [
  ["CCCNNC(=O)c1ccc(CNC(=O)/C=C/c2ccccc2)cc1", 121],
  ["CCCNNC(=O)c1ccc(CNC(=O)/C=C/c2cccnc2)cc1", 42.2],
  ["CCCNNC(=O)c1ccc(CNC(=O)c2cc3ccccc3[nH]2)cc1", 69.6],
  ["CCCNNC(=O)c1ccc(CNC(=O)c2cc3cnccc3[nH]2)cc1", 51.2]
]}

Please examine the following record next.
Short answer please: GI50, HL-60, entry O=C(/C=C/c1cccnc1)NCCCCC1CCN(C(=O)c2ccccc2)CC1 [DAPORINAD]
12.1

* * *

assayed_system: Histone deacetylase 7 (Homo sapiens, UniProt Q8WUI4)
Sequence (Q8WUI4 whole entry): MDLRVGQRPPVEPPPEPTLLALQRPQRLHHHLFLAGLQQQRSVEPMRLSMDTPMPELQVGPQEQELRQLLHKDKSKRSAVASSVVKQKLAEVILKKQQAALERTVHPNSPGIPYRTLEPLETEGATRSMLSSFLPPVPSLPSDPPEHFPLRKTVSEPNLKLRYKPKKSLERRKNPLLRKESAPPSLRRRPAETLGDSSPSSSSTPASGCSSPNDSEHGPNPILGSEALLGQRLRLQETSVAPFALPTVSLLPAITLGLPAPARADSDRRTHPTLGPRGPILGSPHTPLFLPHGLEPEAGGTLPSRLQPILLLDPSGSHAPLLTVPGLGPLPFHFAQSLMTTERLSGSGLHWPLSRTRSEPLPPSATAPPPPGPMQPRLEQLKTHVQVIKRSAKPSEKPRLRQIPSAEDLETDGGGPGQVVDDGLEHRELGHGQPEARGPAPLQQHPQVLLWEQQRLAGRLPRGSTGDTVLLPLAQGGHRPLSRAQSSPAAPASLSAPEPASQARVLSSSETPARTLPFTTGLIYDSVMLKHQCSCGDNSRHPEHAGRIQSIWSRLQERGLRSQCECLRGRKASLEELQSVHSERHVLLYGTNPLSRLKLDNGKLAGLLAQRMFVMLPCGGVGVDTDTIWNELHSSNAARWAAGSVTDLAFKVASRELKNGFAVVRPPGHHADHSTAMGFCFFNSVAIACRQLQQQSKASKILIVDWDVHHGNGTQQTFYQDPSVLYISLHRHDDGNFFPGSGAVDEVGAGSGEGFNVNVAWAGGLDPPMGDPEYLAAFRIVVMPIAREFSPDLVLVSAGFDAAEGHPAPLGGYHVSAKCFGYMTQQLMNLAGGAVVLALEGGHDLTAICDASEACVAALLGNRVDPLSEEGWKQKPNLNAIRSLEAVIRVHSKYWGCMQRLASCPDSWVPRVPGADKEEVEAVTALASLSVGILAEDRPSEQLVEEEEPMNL
measured_parameter: IC50

Quick one: IC50 of `CCCNNC(=O)c1ccc(CNC(=O)/C=C/c2cccnc2)cc1` ?
> 10 µM

So what does the record say about IC50 for `CCCNNC(=O)c1ccc(CNC(=O)c2cc3cnccc3[nH]2)cc1` ?
> 10 µM

* * *

assayed_system: Histone deacetylase 5 (Homo sapiens, UniProt Q9UQL6)
Sequence (Q9UQL6 whole entry): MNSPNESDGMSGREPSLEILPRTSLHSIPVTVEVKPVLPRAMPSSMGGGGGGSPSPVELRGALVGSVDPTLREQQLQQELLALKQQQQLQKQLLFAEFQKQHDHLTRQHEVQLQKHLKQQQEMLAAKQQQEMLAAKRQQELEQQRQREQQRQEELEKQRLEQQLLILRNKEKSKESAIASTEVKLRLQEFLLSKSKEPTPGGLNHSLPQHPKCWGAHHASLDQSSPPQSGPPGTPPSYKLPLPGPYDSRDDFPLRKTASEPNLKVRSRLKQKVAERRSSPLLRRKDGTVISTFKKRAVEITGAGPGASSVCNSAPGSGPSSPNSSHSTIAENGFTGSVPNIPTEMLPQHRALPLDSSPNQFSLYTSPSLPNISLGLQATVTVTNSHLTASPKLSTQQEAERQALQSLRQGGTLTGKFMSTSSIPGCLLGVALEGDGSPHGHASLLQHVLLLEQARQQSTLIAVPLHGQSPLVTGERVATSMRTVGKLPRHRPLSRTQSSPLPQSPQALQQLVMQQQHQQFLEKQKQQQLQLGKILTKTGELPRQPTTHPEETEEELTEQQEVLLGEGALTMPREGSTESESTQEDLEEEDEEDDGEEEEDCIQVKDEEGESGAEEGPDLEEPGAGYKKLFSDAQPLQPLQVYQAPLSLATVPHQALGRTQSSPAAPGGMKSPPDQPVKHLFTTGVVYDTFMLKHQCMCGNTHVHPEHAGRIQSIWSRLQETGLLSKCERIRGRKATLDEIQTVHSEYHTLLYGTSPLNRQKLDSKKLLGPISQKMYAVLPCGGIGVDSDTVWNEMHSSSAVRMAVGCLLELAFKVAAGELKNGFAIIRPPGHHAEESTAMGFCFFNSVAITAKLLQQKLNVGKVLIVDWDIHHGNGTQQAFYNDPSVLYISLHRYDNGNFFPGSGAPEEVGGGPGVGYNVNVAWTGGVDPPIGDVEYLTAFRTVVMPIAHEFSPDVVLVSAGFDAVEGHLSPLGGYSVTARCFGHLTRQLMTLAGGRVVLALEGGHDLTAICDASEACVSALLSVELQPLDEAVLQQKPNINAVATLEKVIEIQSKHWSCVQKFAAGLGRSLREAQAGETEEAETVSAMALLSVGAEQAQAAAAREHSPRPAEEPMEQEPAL
pIC50: −log10 of the molar value.
measured_parameter: pIC50

Hi! What's the reported pIC50 for `CCCNNC(=O)c1ccc(CNC(=O)/C=C/c2cccnc2)cc1` on Histone deacetylase 5 (Homo sapiens, UniProt Q9UQL6)?
< 5.00

# value lookup — system Histone deacetylase 5 (Homo sapiens, UniProt Q9UQL6), readout pIC50, item `CCCNNC(=O)c1ccc(CNC(=O)c2cc3cnccc3[nH]2)cc1`
< 5.00

* * *

assayed_system: Nicotinamide phosphoribosyltransferase (Homo sapiens)
test_protocol: Inhibition of N-terminal GST-tagged human recombinant NAMPT (2 to 491 residues) expressed in Escherichia coli expression system incubated for 30 mins by fluorescence based analysis
measured_parameter: IC50

# example entries with known answers
{"columns": ["compound", "assayed_system", "IC50"],
 "data": [
  ["CCCNNC(=O)c1ccc(CNC(=O)/C=C/c2ccccn2)cc1", "Nicotinamide phosphoribosyltransferase (Homo sapiens)", "> 20 µM"],
  ["CCCNNC(=O)CCCCCCCNC(=O)/C=C/c1cccnc1", "Nicotinamide phosphoribosyltransferase (Homo sapiens)", "> 20 µM"],
  ["CCCNNC(=O)c1ccc(CNC(=O)/C=C/c2ccncc2)cc1", "Nicotinamide phosphoribosyltransferase (Homo sapiens)", "> 20 µM"],
  ["CCCNNC(=O)CCCCNC(=O)/C=C/c1cccnc1", "Nicotinamide phosphoribosyltransferase (Homo sapiens)", "> 20 µM"],
  ["CCCNNC(=O)CCNC(=O)/C=C/c1cccnc1", "Nicotinamide phosphoribosyltransferase (Homo sapiens)", "> 20 µM"]
]}

# lookup: IC50 of `CCCNNC(=O)c1ccc(CNC(=O)CCCCCCNC(=O)/C=C/c2cccnc2)cc1`
0.261 µM

// lookup IC50 for `CCCNNC(=O)c1ccc(CNC(=O)/C=C/c2cccnc2)cc1`
1.66 µM

Look at this compound and give its reported IC50. `CCCNNC(=O)c1ccc(NC(=O)CCCCCCCNC(=O)/C=C/c2cccnc2)cc1`
> 20 µM

Can you look up the measured IC50 of `CCCNNC(=O)CCCCCCNC(=O)/C=C/c1cccnc1` for me?
0.261 µM

What does the record list as IC50 for `CCCNNC(=O)c1ccc(CNC(=O)CCCCCCCNC(=O)/C=C/c2cccnc2)cc1` ?
0.489 µM

IC50 lookup needed for `CCCNNC(=O)c1ccc(NC(=O)CCCCCCNC(=O)/C=C/c2cccnc2)cc1` , thanks.
> 20 µM

Which value of IC50 has been reported for O=C(CCCCCCC(=O)Nc1ccccc1)NO [VORINOSTAT] in the records?
> 20 µM

Fill in the blank: the reported IC50 of `COC(=O)c1ccc(CNC(=O)c2cc3cnccc3[nH]2)cc1` is ____.
6.87 µM
